Biological target: Factor X (FX), P00742
Sequence (P00742 whole entry, looked up): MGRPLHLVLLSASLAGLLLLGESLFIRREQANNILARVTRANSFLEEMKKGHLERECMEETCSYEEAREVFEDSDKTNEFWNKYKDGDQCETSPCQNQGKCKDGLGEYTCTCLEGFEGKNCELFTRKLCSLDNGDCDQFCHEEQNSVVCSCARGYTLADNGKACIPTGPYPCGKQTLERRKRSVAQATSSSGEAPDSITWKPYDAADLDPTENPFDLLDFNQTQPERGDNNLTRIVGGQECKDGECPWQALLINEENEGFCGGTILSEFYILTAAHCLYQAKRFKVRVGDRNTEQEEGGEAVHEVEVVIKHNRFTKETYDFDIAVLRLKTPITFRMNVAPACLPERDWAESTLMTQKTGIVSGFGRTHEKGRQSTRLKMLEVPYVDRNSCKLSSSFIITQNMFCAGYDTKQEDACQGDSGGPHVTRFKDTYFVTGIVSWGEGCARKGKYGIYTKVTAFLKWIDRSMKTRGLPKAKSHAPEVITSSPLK
Measured Quantity: kcat of FX activation by FIXa (Xase complex with FVIIIa, PC/PS vesicles, Ca2+) (s⁻¹)
// note: answer is a bare numeric in s⁻¹

Query :: Field request: kcat of FX activation by FIXa (Xase complex with FVIIIa, PC/PS vesicles, Ca2+) | item: FIXa-D104N/K106S/K247N/N249S/N260S (protein) chain 1: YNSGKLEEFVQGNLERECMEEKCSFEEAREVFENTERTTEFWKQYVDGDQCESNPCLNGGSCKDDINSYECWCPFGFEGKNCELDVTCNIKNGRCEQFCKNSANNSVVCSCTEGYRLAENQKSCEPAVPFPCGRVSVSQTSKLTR chain 2: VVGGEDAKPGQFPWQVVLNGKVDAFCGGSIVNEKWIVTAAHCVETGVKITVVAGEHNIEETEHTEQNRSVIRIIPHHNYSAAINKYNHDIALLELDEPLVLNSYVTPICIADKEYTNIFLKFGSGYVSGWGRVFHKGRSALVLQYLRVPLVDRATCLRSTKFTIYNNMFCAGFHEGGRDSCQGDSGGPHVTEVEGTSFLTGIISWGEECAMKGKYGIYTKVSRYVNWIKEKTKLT
Result :: 0.6
